What IC50 was measured for each of the following?
Molecular target: Autotaxin (Homo sapiens, UniProt Q13822)
Test: Inhibition of ATX in human plasma assessed as decrease in hydrolysis of lysophosphatidylcholine by measuring choline release after 24 hrs by horseradish peroxidase/choline oxidase-coupled assay
Type: cell-free
The reply should be a number in nM, with the unit left off.

Incoming: Field request: IC50 | item: C[C@H](NC(=O)CCc1nc2cccnc2n1Cc1ccccc1)c1ccccc1
Outgoing: 288

Incoming: Field request: IC50 | item: C[C@H](NC(=O)CCc1nc2cccnc2n1Cc1ccc(C(F)(F)F)cc1)c1ccc(Cl)cc1
Outgoing: 16

Incoming: Field request: IC50 | item: C[C@H](NC(=O)COc1nc2cccnc2n1Cc1ccc(F)cc1)c1ccc(F)cc1
Outgoing: 821

Incoming: Field request: IC50 | item: O=C(CCc1nc2cccnc2n1Cc1ccc(F)cc1)N[C@@H](CO)c1ccc(Cl)cc1
Outgoing: 26

Incoming: Field request: IC50 | item: C[C@H](NC(=O)C[S+]([O-])c1nc2cccnc2n1Cc1ccc(OC(F)(F)F)cc1)c1ccc(F)cc1 (stereo in doubt; 26b)
Outgoing: 207

Incoming: Field request: IC50 | item: C[C@H](NC(=O)OCc1nc2cccnc2n1Cc1ccc(F)cc1)c1ccc(F)cc1
Outgoing: 3290

Incoming: Field request: IC50 | item: C[C@H](NC(=O)C[S+]([O-])c1nc2cccnc2n1Cc1ccc(OC(F)(F)F)cc1)c1ccc(F)cc1 (stereo in doubt; 26a)
Outgoing: 178

Incoming: Field request: IC50 | item: C[C@H](NC(=O)CCc1nc2cccnc2n1Cc1ccc(F)cc1)c1ccc(F)cc1
Outgoing: 444

====

Assay: Half life in CD1 mouse blood at 0.5 mg/kg, iv administered as bolus dose measured up to 7 hrs by UPLC/MS/MS spectrometry analysis
Assay type: ADME, organism-based
What half-life was measured for each of the following?
The reply should be a number in min, with the unit left off.

Incoming: Field request: half-life | item: C[C@H](NC(=O)COc1nc2cccnc2n1Cc1ccc(OC(F)(F)F)cc1)c1ccc(Cl)cc1
Outgoing: 12

Incoming: Field request: half-life | item: COc1ccc(Cn2c(CCC(=O)N[C@@H](C)c3ccccc3)nc3cccnc32)cc1
Outgoing: 10.2

====

Assay: in vivo
Settings: Balb-c nu/nu, mouse, blood, po, 100 mg/kg
property measured: bioavailability at 7 h (%)
The reply should be a number in %, with the unit left off.

Incoming: Field request: bioavailability at 7 h | item: C[C@H](NC(=O)CCc1nc2cccnc2n1Cc1ccc(OC(F)(F)F)cc1)c1ccc(Cl)cc1
Outgoing: 75

====

Test: Half life in Sprague-Dawley rat blood at 1 mg/kg, iv administered as bolus dose or 3 mg/kg, po administered via gastric gavage measured up to 20 hrs by UPLC/MS/MS spectrometry analysis
Assay type: ADME, organism-based
property measured: half-life
Returns: string containing the numeric result and its unit.

Incoming: Field request: half-life | item: C[C@H](NC(=O)CCc1nc2cccnc2n1Cc1ccc(OC(F)(F)F)cc1)c1ccc(Cl)cc1 [CAMBRITAXESTAT]
Outgoing: 5.4 h

====

Assay: Blood clearance in CD1 mouse at 1 mg/kg, iv administered as bolus dose measured up to 7 hrs by UPLC/MS/MS spectrometry analysis
Assay type: ADME, organism-based
property measured: clearance (mL/min/kg)
The reply should be a number in mL/min/kg, with the unit left off.

Incoming: Field request: clearance | item: O=C(CCc1nc2cccnc2n1Cc1ccc(F)cc1)N[C@@H](CO)c1ccc(Cl)cc1
Outgoing: 73

Incoming: Field request: clearance | item: C[C@H](NC(=O)CCc1nc2ccncc2n1Cc1ccc(OC(F)(F)F)cc1)c1ccc(Cl)cc1
Outgoing: 73

Incoming: Field request: clearance | item: C[C@H](NC(=O)CSc1nc2cccnc2n1Cc1ccc(OC(F)(F)F)cc1)c1ccc(F)cc1
Outgoing: 81

Incoming: Field request: clearance | item: C[C@H](NC(=O)CCc1nc2cccnc2n1Cc1ccc(C(F)(F)F)cc1)c1ccc(Cl)cc1
Outgoing: 72

Incoming: Field request: clearance | item: C[C@H](NC(=O)CCc1nc2cccnc2n1Cc1ccc(OC(F)(F)F)cc1)c1ccc(Cl)cc1
Outgoing: 41

Incoming: Field request: clearance | item: C[C@H](NC(=O)CCc1nc2cccnc2n1Cc1ccc(OC(F)F)cc1)c1ccc(Cl)cc1
Outgoing: 62

Incoming: Field request: clearance | item: C[C@H](NC(=O)C[S+]([O-])c1nc2cccnc2n1Cc1ccc(OC(F)(F)F)cc1)c1ccc(F)cc1 (stereo in doubt; 26a)
Outgoing: 82

Incoming: Field request: clearance | item: C[C@H](NC(=O)NCc1nc2cccnc2n1Cc1ccc(F)cc1)c1ccc(F)cc1
Outgoing: 67
